tested on: colistin-resistant E. coli clinical isolates; assay: Disk diffusion antimicrobial susceptibility testing (CLSI); format: cell-based, Escherichia coli; conditions: EC-07

compound	Interpreted results of disk diffusion
C[C@@H]1O[C@@H]1P(=O)(O)O	S
CC(C)(O/N=C(\C(=O)N[C@@H]1C(=O)N2C(C(=O)[O-])=C(C[n+]3ccccc3)CS[C@H]12)c1csc(N)n1)C(=O)O	I
CO/N=C(\C(=O)N[C@@H]1C(=O)N2C(C(=O)[O-])=C(C[N+]3(C)CCCC3)CS[C@H]12)c1csc(N)n1 [FEP, cefepime]	R
O=C(N[C@H](CO)[C@H](O)c1ccc([N+](=O)[O-])cc1)C(Cl)Cl	R

Where these numbers come from: paper PMC10653547
